Hi there, I'd appreciate the recorded %Inh for every entry that follows.
system: TIE2; construct: gene TEK; conditions: concentration: 1 μM,replicates: in singlicate; n = 1;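 note: KINOMEscan kinase panel screen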
Write the figure, then the unit, nothing else.

Q: Fill in: %Inh of Cc1nnc(-c2ccc3occ(-c4ccc(S(C)=O)cc4)c3n2)o1 (stereo not drawn) is ___
Result: 0%

Q: Fill in: %Inh of `Cc1ccc(CC(=O)N2CCc3cc(-c4cn(C)c5ncnc(N)c45)ccc32)cc1` is ___
Result: 48%

Q: Fill in: %Inh of `C[C@@H]1CNc2c(sc3ccc4nc(-c5ccc(O)cc5)ccc4c23)C(=O)N1` is ___
Result: 25%

Q: Fill in: %Inh of `C[C@@H](Oc1cc(-n2cnc3ccc(-c4ccncc4)cc32)sc1C(N)=O)c1ccccc1Cl` is ___
Result: 0%

Q: Fill in: %Inh of `Cn1ccc2ncnc(Oc3ccc(NC(=O)Nc4cnn(C(C)(C)C)c4)c(Cl)c3)c21` is ___
Result: 73%

Q: Fill in: %Inh of `CCOC(=O)N1CCC(n2cnc(-c3ccc(F)cc3)c2-c2ccnc(N)n2)CC1` is ___
Result: 10%

Q: Fill in: %Inh of `Cl.c1ccc(Oc2ccc(Nc3ccnc4cc(-c5ccc(CN6CCNCC6)o5)ccc34)cc2)nc1` is ___
Result: 0%

Q: Fill in: %Inh of COc1cccc(CNC(=O)NC2CCN(c3ccnc(Nc4cc(OC)c(OC)c(OC)c4)n3)C2)c1 (stereo not drawn) is ___
Result: 0%

Q: Fill in: %Inh of `CCn1c(-c2nonc2N)nc2cncc(Br)c21` is ___
Result: 0%
